The reported measurements were obtained from patent US10758466B2.

experiment_notes: UV filters dispersion: dispersibility of solid UV filter in ester oils
Type: physicochemical
Parameters: key: D=homogeneous dispersion; S=sediment deposit
run_conditions: 1% TiO2, storage 0 hours, 25° C.

[
  {
    "compound": "CCCCCCCCC(=O)OCC(C)(C)COC(=O)CCCCCCCC [Neopentyl glycol dipelargonate]",
    "Filters dispersion t0 1%": "D"
  },
  {
    "compound": "CCCCCCCCC(=O)OCC(COC(=O)CCCCCCCC)OC(=O)CCCCCCCC [Glycerol tripelargonate]",
    "Filters dispersion t0 1%": "D"
  },
  {
    "compound": "CCCCCCCCC(=O)OCC(COC(=O)CCCCCCCC)(COC(=O)CCCCCCCC)COC(=O)CCCCCCCC [Pentaerythritol tetrapelargonate]",
    "Filters dispersion t0 1%": "D"
  },
  {
    "compound": "CC(C)CCCCCCOC(=O)CCCCCC(C)C [Isononyl Isononanoate, reference compound]",
    "Filters dispersion t0 1%": "D"
  }
]

* * *

experiment_notes: UV filters dispersion: dispersibility of solid UV filter in ester oils
Assay type: physicochemical
Parameters: key: D=homogeneous dispersion; S=sediment deposit
run_conditions: 10% TiO2, storage 24 hours, 25° C.
readout_kind: Filters dispersion t24 10%

[
  {
    "compound": "CCCCCCCCC(=O)OCC(COC(=O)CCCCCCCC)(COC(=O)CCCCCCCC)COC(=O)CCCCCCCC [Pentaerythritol tetrapelargonate]",
    "readout_kind": "Filters dispersion t24 10%",
    "val": "D"
  },
  {
    "compound": "CCCCCCCCC(=O)OCC(COC(=O)CCCCCCCC)OC(=O)CCCCCCCC [Glycerol tripelargonate]",
    "readout_kind": "Filters dispersion t24 10%",
    "val": "S/D"
  },
  {
    "compound": "CCCCCCCCC(=O)OCC(C)(C)COC(=O)CCCCCCCC [Neopentyl glycol dipelargonate]",
    "readout_kind": "Filters dispersion t24 10%",
    "val": "S/D"
  },
  {
    "compound": "CC(C)CCCCCCOC(=O)CCCCCC(C)C [Isononyl Isononanoate, reference compound]",
    "readout_kind": "Filters dispersion t24 10%",
    "val": "S"
  }
]
